Assay: A549 cell viability effects, profiling panel, calcein-AM fluorescence, 48 h, basal (AID 1162); note: test concentration not given here
Settings: higher = more signal
Outcome: 1 for z-score of at least -0.07; 0 for anything lower.

COMPOUND	ASSIGNED_LABEL
CCOC(=O)[C@H](CC(C)C)NC(=O)CCC1CC(OC(=O)NCCc2ccc(F)cc2)CC2(CCCC(COC(=O)NCCCN3CCCC3=O)O2)O1 (stereo partly specified)	1
COC(=O)CC=C[C@@H](C)[C@@H](C=NOC[C@@H](C)[C@H](OCc1ccccc1)C(C)C)NS(=O)(=O)c1ccc(C)cc1	1
CC(=O)OC[C@H]1O[C@H](CC=NO[C@@H](C)c2cc(-c3c(C)cc(C)cc3C)no2)C=C[C@@H]1OC(C)=O	0
C[C@@H](c1ccccc1)N1C(=O)[C@H]2[C@H]3[C@H](O)[C@H](O)CC(=NOC[C@@H](O)COCc4ccco4)[C@H]3CC[C@H]2C1=O	0
COc1ccc(COC(=O)NN=C2C[C@@H](O)[C@@H](O)[C@@H]3[C@@H]4C(=O)N(C5CCCCC5)C(=O)[C@@H]4CC[C@@H]23)cc1	1
CO[C@@H]1[C@H](O)CO[C@H]1C=Cc1ccccc1	1
COC(=O)CC=C[C@@H](C)[C@@H](C=NOC[C@@H](O)COCc1ccco1)NS(=O)(=O)c1ccc(C)cc1	0
CO[C@@H]1COC(=O)[C@H](CCSC)NC(=O)CC=C[C@@H](C)COC(=O)[C@@H]2CCCN2C(=O)CC=C[C@H]1C	0
COC(=O)C(C(=O)OC)C1CCCC(=O)C1 (stereo unspecified)	1
CCOC(=O)[C@H](Cc1ccccc1)NC(=O)CCC1CC(OC(=O)NCc2cccc3ccccc23)CC2(CCCC(COC(=O)NCCc3ccc(Cl)cc3)O2)O1 (stereo partly specified)	1
CO[C@H]1COC(=O)[C@H](C)COC(=O)[C@@H](OCc2ccccc2)C=C[C@@H]1C	1
CC(CCN1CCCc2nc(C)c(C)cc21)=NO[C@H](C)c1cn([C@H](CO)Cc2ccccc2)nn1	0
COc1ccc(O[C@H]2C=C[C@@H](c3ccccc3)O[C@@H]2CON=C2c3cc(OC)ccc3O[C@H](c3cccc(OC)c3)[C@H]2O)cc1	1
COc1ccc(O[C@H]2C=C[C@@H](c3ccccc3)O[C@@H]2CON=C(C)CCN2CCCc3nc(C)c(C)cc32)cc1	1
CC[C@@H](c1ccccc1)n1c(=O)n2n(c1=O)[C@H]1[C@H](O)[C@@H]3O[C@@H]3C(=NOCc3ccccc3)[C@H]1CC2	0

* * *

Biological target: Fibroblast growth factor 10 (Homo sapiens)
Experiment: FGF10 binders on small-molecule microarrays, primary screen, biochemical, small-molecule microarray, 635 nm fluorescence (AID 1102)
Settings: FGF10 binding, fluorescence 635 nm, higher = more signal
READOUT: composite z-score

In [3]: df
Out[3]:
                                   compound            readout  meas_value
0  COC(=O)CC=C[C@@H](C)[C@@H](C=NOC(C)CN1CCCc2nc(C)c(C)cc21)NS(=O)(=O)c1ccc(C)cc1 (some centres undefined)  composite z-score        0.65
1  COCCNC(=O)OCC1CCCC2(CC(OC(=O)NCc3cccc4ccccc34)CC(CCC(=O)N[C@@H](C)C(=O)OC)O2)O1 (some centres undefined)  composite z-score        1.06
2  O=C(NN=C1C[C@@H](O)[C@@H](O)[C@@H]2[C@@H]3C(=O)N(Cc4ccc5c(c4)OCO5)C(=O)[C@@H]3CC[C@@H]12)OCc1ccccc1  composite z-score      -0.319
3  C[C@H]1CC[C@@H](C(=O)O)N[C@@H]1c1ccc(C#Cc2ccccc2)cc1  composite z-score        1.24

* * *

Biological target: NADPH oxidase 4 (Homo sapiens) (UniProt Q9NPH5)
Sequence (Q9NPH5 whole entry, looked up): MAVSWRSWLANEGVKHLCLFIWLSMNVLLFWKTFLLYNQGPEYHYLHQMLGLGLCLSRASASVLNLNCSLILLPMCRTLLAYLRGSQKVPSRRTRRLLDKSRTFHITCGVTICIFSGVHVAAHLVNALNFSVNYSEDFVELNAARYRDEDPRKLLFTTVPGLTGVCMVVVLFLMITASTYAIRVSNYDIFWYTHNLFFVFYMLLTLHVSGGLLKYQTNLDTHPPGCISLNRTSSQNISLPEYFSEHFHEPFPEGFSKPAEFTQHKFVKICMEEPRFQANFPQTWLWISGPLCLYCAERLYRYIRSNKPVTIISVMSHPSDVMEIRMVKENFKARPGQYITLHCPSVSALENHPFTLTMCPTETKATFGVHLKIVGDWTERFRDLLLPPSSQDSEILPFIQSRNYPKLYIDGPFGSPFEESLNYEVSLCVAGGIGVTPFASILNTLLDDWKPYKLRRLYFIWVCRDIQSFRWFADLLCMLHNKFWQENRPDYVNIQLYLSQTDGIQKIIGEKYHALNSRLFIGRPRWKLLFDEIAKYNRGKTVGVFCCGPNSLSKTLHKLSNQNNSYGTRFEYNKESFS
Assay: NOX4-dependent H2O2 signal modulators, primary screen, NOX inhibitor project, cell-based, HEK293-NOX4, tetracycline-induced, Amplex Red fluorescence (AID 1160)
Settings: 45 min, higher = more signal, called active from +8 up or from −8 down
Binning of z-score into classes: group 1 (below 0.08), group 2 (0.08 to below 0.5), group 3 (0.5 or more)

MOLECULE	ASSIGNED_LABEL
C[C@@H]1CC[C@H]2C(=O)O[C@@H](COc3ccc(C(C)(C)C)cc3)CN2[C@H]1c1ccc(Br)cc1	group 3
CCc1cc2c(nc1CC)CCN(CCC(C)=NO[C@@H]1O[C@H](COC(C)=O)[C@@H](OC(C)=O)[C@H](OC(C)=O)[C@H]1OC(C)=O)C2	group 2
CC(C)=CCCC(C)=CCON=C1C[C@@H](O)[C@@H](O)[C@@H]2[C@@H]3C(=O)N(Cc4ccc5c(c4)OCO5)C(=O)[C@@H]3CC[C@@H]12	group 1
Cc1ccc(S(=O)(=O)N[C@@H]2COC(=O)CC=C[C@@H](C)[C@H](NS(=O)(=O)c3ccc(C)cc3)COC(=O)[C@H](C)NC(=O)CC=C[C@H]2C)cc1	group 2
CC(CCN1CCc2nc(-c3ccccc3)c(-c3ccccc3)cc2C1)=NOC(C)CN1CCCc2nc(C)c(C)cc21 (centres undefined)	group 1
O=C1C=C[C@@H](O)[C@@H]2[C@@H]3C(=O)N(C4CCCCC4)C(=O)[C@@H]3CC[C@@H]12	group 3
O=C1[C@H]2[C@H]3[C@H](O)[C@H](O)CC(=NOCc4ccccc4)[C@@H]3CC[C@H]2C(=O)N1c1cccc(Oc2ccccc2)c1	group 3
COc1ccc(O[C@H]2C=C[C@@H](c3ccccc3)O[C@@H]2COC(=O)NCc2cccc3ccccc23)cc1	group 1
O=C1[C@H]2[C@H]3[C@H](O)[C@H](O)CC(=NO[C@@H]4O[C@H](CO)[C@@H](O)[C@H](O)[C@H]4O)[C@H]3CC[C@H]2C(=O)N1c1ccc(F)cc1F	group 3
CCOC(=O)[C@H](Cc1ccccc1)NC(=O)CCC1CC(OC(=O)NCc2cccc3ccccc23)CC2(CCCC(COC(=O)NCc3ccc4c(c3)OCO4)O2)O1 (some centres undefined)	group 3
C=CC[C@@H]1C=C[C@H](ON=C[C@@H](NS(=O)(=O)c2ccc(C)cc2)[C@H](C)C=CCC(=O)OC)[C@@H](CO)O1	group 2
CC(CCC(=O)OC[C@H]1O[C@H](C#Cc2ccccc2)C=C[C@@H]1Oc1ccc(C)cc1)=NO[C@H](C)c1cn([C@@H]2COC[C@H]2O)nn1	group 1
CC(C)CON=C1C[C@@H](O)[C@@H](O)[C@@H]2[C@@H]3C(=O)N(C(C)(C)C)C(=O)[C@@H]3CC[C@@H]12	group 1
CC(C)(C)N1C(=O)[C@H]2[C@H]3[C@H](O)[C@H](O)CC(=NOC[C@@H](O)COCc4ccco4)[C@@H]3CC[C@H]2C1=O	group 1
C[C@@H](c1ccccc1)N1C(=O)[C@H]2[C@H]3[C@H](O)[C@H](O)CC(=NNC(=O)OCc4ccccc4)[C@@H]3CC[C@H]2C1=O	group 3
COc1ccc2c(c1)O[C@@H](c1cccc(C(F)(F)F)c1)[C@H](O)C2=O	group 2
C[C@@H](c1ccccc1)N1C(=O)[C@H]2[C@H]3[C@H](O)[C@H](O)CC(=NOC[C@@H](O)COCc4ccco4)[C@H]3CC[C@H]2C1=O	group 3
CC(=O)OC[C@H]1O[C@@H](ON=C(C)CCN2CCCCc3nc(C)c(C)cc32)[C@H](OC(C)=O)[C@@H](OC(C)=O)[C@@H]1OC(C)=O	group 1
COC(=O)[C@H](C)NC(=O)CCC1CC(OC(=O)NCCc2ccc(F)cc2)CC2(CCCC(COC(=O)NCC3CCCCC3)O2)O1 (some centres undefined)	group 1
COC(=O)[C@H](C)NC(=O)CCC1CC(OC(=O)NCc2cccc3ccccc23)CC2(CCCC(COC(=O)NCCCN3CCCC3=O)O2)O1 (some centres undefined)	group 1
O=C1CCCC=C1C(O)COCc1ccccc1 (centres undefined)	group 3
CC1(C)O[C@H]2O[C@H]([C@H](O)CON=C3[C@H]4CCn5c(=O)n(-c6ccccc6)c(=O)n5[C@H]4[C@H](O)[C@@H]4O[C@H]34)[C@H](O)[C@H]2O1	group 2
CCC1=NOC(CCC2CC(OC(=O)NCc3cccc4c3OCO4)CC3(CCCC(COC(=O)NCCc4ccc(Cl)cc4)O3)O2)C1 (centres undefined)	group 3
O=C1C[C@@H](O)[C@@H](O)[C@@H]2[C@@H]3C(=O)N(c4ccc(F)cc4F)C(=O)[C@@H]3CC[C@H]12	group 2
C=C(C)C(=O)OC[C@H]1CN2[C@@H](CC[C@@H](C)[C@@H]2c2ccc(Br)cc2)C(=O)O1	group 2
COCC#Cc1ccc([C@@H]2N[C@H](C(=O)O)CC[C@H]2C)cc1	group 2
C[C@H]1CC[C@@H](C(=O)O)N[C@@H]1c1ccc(C#Cc2ccccc2)cc1	group 3
COC(OC)[C@@H](C)[C@H](OC)[C@@H](C)[C@H](OC)c1ccccc1	group 2
